# TESTED_TARGET: Aurora kinase A (Homo sapiens, UniProt O14965)
# Sequence (O14965 whole entry): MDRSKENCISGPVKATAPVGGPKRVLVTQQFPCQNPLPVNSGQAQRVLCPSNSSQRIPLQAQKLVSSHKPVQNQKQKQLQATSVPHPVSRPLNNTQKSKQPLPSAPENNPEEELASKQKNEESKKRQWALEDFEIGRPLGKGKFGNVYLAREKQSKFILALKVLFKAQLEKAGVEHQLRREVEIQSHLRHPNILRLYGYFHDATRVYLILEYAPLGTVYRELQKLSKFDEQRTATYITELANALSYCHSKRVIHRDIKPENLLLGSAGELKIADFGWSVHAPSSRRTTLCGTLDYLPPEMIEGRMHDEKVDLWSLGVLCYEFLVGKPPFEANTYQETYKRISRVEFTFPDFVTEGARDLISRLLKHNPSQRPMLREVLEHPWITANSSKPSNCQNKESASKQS
# METHOD_NOTES: Inhibition of Aurora A
pIC50: −log10 of the molar value.
ENDPOINT_LABEL: pIC50

Given the compound NC(=O)c1sc2c([N+](=O)[O-])cc(SC(F)(F)F)cc2[n+]1[O-] [CYCLAPOLIN 1] and test system Aurora kinase A (Homo sapiens, UniProt O14965), the measured pIC50 is < 4.00

###

Readings of pIC50 for the listed molecules
# METHOD_NOTES: Inhibition of MAPK/ERK
pIC50: −log10 of the molar value.

NC(=O)c1sc2c([N+](=O)[O-])cc(C(F)(F)F)cc2[n+]1[O-] : < 4.00

Then this molecule:
Value of measured pIC50 for the entry `NC(=O)c1sc2c([N+](=O)[O-])cc(SC(F)(F)F)cc2[n+]1[O-]` : < 4.00
